- target_entity: human FABP4 (huFABP4) (Homo sapiens (Human))
- Sequence (P15090 whole entry): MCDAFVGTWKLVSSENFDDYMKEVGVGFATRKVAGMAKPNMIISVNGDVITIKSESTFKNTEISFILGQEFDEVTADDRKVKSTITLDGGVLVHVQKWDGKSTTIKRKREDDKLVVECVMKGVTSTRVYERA
- method_notes: Tb TR-FRET assay, binding of Bodipy labeled fatty acid to His6 tagged huFABP4
- reported_conditions: 50 nM FABP protein, […] Bodipy labeled fatty acid; read-out: IC50 h-fabp4-ecoli-r
Hi there, I'd appreciate the recorded IC50 for every entry that follows.

Exercise: Assign IC50 to the following record: O=C(O)[C@H]1CCN1C(=O)Nc1cc(Cl)ccc1-c1cccc(F)c1F
Key: 60 nM

Exercise: Annotate the molecule O=C(O)[C@H]1CCCN1C(=O)Nc1cc(Cl)ccc1-c1ccc(F)cc1 with its measured IC50.
Key: 60 nM

Exercise: Identify the reported IC50 for the following entry. CC1(C(=O)O)CCCN1C(=O)Nc1ccccc1-c1ccccc1 (stereo not drawn)
Key: 860 nM

Exercise: Read off the recorded IC50 for O=C(O)C1SCCN1C(=O)Nc1ccccc1-c1ccccc1 (stereo not drawn)
Key: 9820 nM

Exercise: Look up and report measured IC50 for this entry: O=C(O)[C@H]1CCCN1C(=O)Nc1c(F)cccc1-c1ccccc1
Key: 860 nM

Exercise: Quickly give me recorded IC50 for O=C(O)[C@H]1CCCN1C(=O)Nc1c(-c2ccccc2)sc2ccccc12
Key: 670 nM

Exercise: State, in one line, measured IC50 of O=C(O)[C@H]1CCCN1C(=O)Nc1c(-c2ccccc2)sc2ncccc12
Key: 1660 nM

Exercise: Give the measured IC50 for O=C(O)[C@H]1CCCN1C(=O)Nc1ccc(Cl)cc1-c1ccccc1
Key: 2040 nM

Exercise: Please supply the value of reported IC50 for the item O=C(O)[C@H]1CCN1C(=O)Nc1cc(Cl)ccc1-c1ccccc1
Key: 20 nM
